assay: folding stability dG unfold (combined trypsin and chymotrypsin); higher = more stable
testReadout: folding stability dG unfold (kcal/mol)
Expressed in kcal/mol, but write only the number.

Some solved entries appear below for comparison.
- orderedResidues: "SAGGSAGGSETVVIKIEVSPEELEKLKEALEEAGYEVEIRVERDENGKLTVTVTIRLPPGVKPSAGGSAGGS [r12_653_TrROS_Hall]"
  testReadout: "folding stability dG unfold"
  uom: "kcal/mol"
  resultValue: 2.86
- orderedResidues: "SKKIKIILRYPDGWYVKAEMEVPNGKERDIWFPNPEEAIEWAKTIARQFNPGVEIEDIETVPPDDLPPNFSA [r9_137_TrROS]"
  testReadout: "folding stability dG unfold"
  uom: "kcal/mol"
  resultValue: 1.61
- orderedResidues: "SAMKWSEVVVSYPSDRWYAEIYTPGPGGELTSVSYREFDSLEELEQWIEEKAPPGEVEVKREPAPPELLSAG [r14_964_JUSTAS]"
  testReadout: "folding stability dG unfold"
  uom: "kcal/mol"
  resultValue: 0.967
- orderedResidues: "SAGSPPDDVREEETEEVVPSPDGSLTVTRTPVVRRPGEEEEVRTETTVYFPPSDETLTSESLTRFPGASAGG [r19_387_JUSTAS]"
  testReadout: "folding stability dG unfold"
  uom: "kcal/mol"
  resultValue: 0.695
- orderedResidues: "SAGGSAGGSAGMKVTIEENEETGKFTIKVKTEDGEEKTIEIPKENLEEILAKLPPNVEIISAGGSAGGSAGG [r11_569_TrROS_Hall]"
  testReadout: "folding stability dG unfold"
  uom: "kcal/mol"
  resultValue: 2.14

For record SAGGSAGGMKTVEIEVTVKTPDGKEVKIKKARIEYDKETKTFHLYFENEETGEWYEVDEIKLKDSAGGSAGG [r6_329_TrROS_Hall] the listed folding stability dG unfold is 2.71

In plain terms, SAGGMMKLELEIEKEDGKKYKIEVEYNKEEPVLKIKIYDKNGKKIKEIEIKAKSLEEALEAAKKLLKSAGGS [r16_158_TrROS_Hall] has a documented folding stability dG unfold of 3.68

====

assay: folding stability dG unfold from trypsin proteolysis; higher = more stable
# folding stability dG unfold annotations
Give just the number in kcal/mol; leave the unit off.

Worked cases, answers included:
- orderedResidues: "SAGGSAGGSSMPTMTKVGDTWLYYDPSTDIKRPATVTVDDGKITIDGDSGTTVYDGDLVIETSSAGGSAGGS [r12_683_JUSTAS]"
  resultValue: 0.389
- orderedResidues: "SMTLTLEDGKLTLTVTETRTTVERDAADPGKWTTRTETRTVTLTLPLEDLEALKKLLEALPPGARVELVPSA [r9_476_TrROS_Hall]"
  resultValue: 3.23
- orderedResidues: "SAGGSAGMPDPPLEGLKEALREALAANPGEEVTLTVPRADGRTLTVRGTKDGGIEITLPDGTRIALSAGGSA [r15_73_JUSTAS]"
  resultValue: 1.58

The recorded folding stability dG unfold for SAGGSAGGSAGTVIRVRDKNGKIVEISLEEAAELLGIPPSELTLEDIVKAFAEKVDSIEILSSAGGSAGGSA [r18_403_TrMRF] is 3.6

SAGGSAMVKTADGKEVKVEKVIPLEEMSLEELKALAEKNNKPILIVDKKTKKVIVLTKEELEKLLKSAGGSA [r15_904_TrROS_Hall] has a reported folding stability dG unfold of 0.858

Input SAGGSAGGSAGGEEEYVTLTIKVYDPKTREPVKEITIVLPKKNMTPEQLRELLKELGIEVSAGGSAGGSAGG [r7_903_TrROS_Hall] . Output folding stability dG unfold: 2.87

Reported folding stability dG unfold for SAGGSAGGSAAAPPPPTITITVEVRTLPDGTVEITATATLPDGTTLTVTLRINADGSLTATSAGGSAGGSAG [r3_259_TrROS_Hall] was 1.91
